Biological target: PBRM1BD5 (Homo sapiens, UniProt P40337+Q86U86)
Construct: GST (TEV site) (N); His6 (TEV site) (N, cleaved yes)
Sequence (Q86U86 645-766): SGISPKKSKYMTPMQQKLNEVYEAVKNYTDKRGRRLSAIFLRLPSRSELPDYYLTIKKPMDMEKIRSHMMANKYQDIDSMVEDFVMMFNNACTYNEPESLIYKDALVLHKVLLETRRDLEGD
Sequence (P40337 54-213): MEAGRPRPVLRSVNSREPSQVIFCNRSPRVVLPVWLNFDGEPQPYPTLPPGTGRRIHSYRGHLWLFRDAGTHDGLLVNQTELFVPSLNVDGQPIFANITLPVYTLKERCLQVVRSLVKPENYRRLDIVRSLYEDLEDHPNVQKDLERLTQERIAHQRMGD
Sequence (Q15369 17-112 partner): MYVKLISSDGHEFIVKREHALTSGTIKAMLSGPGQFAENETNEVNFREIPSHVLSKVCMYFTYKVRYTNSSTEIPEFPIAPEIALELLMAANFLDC
Sequence (Q15370 1-104 partner): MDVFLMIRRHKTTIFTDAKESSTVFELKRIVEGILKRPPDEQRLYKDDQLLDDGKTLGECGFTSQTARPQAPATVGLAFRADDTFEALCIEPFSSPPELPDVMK
Test: TR-FRET ternary complex affinity and cooperativity, PBRM1
Settings: TR-FRET competition for PBRM1BD5, + VCB; mean ± SD; read-out: TR-FRET Ternary PBRM1BD EC50 (PROTAC + VCB)
quantity kind: pEC50
Conceptually, pEC50 converts a concentration in mol/L into minus its log10.

Asked: Dear colleague, I am looking for the recorded pEC50 of the following compound: Cc1ncsc1-c1ccc(CNC(=O)[C@@H]2C[C@@H](O)CN2C(=O)[C@@H](NC(=O)C2(F)CC2)C(C)(C)C)c(OCCOCCOCCN2CCC(c3ccc4c(c3)n(C3CCCC3)c3nc(=O)c5c(Br)cccc5n43)CC2)c1
Given back: 7.42

Asked: Which pEC50 value is on record for Cc1ncsc1-c1ccc([C@H](COC(C)CN2CCC(c3ccc4c(c3)n(C3CCCC3)c3nc(=O)c5c(Br)cccc5n43)CC2)NC(=O)[C@@H]2C[C@@H](O)CN2C(=O)[C@@H](NC(=O)C2(N(C)C)CC2)C(C)(C)C)cc1 (stereo partly shown) ?
Given back: 8.10

Asked: Quick one: pEC50 for Cc1ncsc1-c1ccc([C@H](CC[C@@H](C)CCN2CCC(c3ccc4c(c3)n(C3CCCC3)c3nc(=O)c5c(Br)cccc5n43)CC2)NC(=O)[C@@H]2C[C@@H](O)CN2C(=O)[C@@H](NC(=O)C2(F)CC2)C(C)(C)C)cc1 ?
Given back: 8.52

Asked: I would be grateful if you could share the reported pEC50 for Cc1ncsc1-c1ccc([C@H](COC(C)CN2CCC(c3ccc4c(c3)n(C3CCCC3)c3nc(=O)c5c(Br)cccc5n43)CC2)NC(=O)[C@@H]2C[C@@H](O)CN2C(=O)[C@@H](NC(=O)C2(F)CC2)C(C)(C)C)cc1 (stereo partly shown) .
Given back: 8.15

---

Test: Pharmacokinetic analyses in mouse
Type: in vivo
Details: NMRI, mouse, plasma, po, 100 mg/kg, NMRI mice
quantity kind: MRT

Asked: So what does the record say about MRT for Cc1ncsc1-c1ccc([C@H](CCCCCN2CCC(c3ccc4c(c3)n(C3CCCC3)c3nc(=O)c5c(Br)cccc5n43)CC2)NC(=O)[C@@H]2C[C@@H](O)CN2C(=O)[C@@H](NC(=O)C2(F)CC2)C(C)(C)C)cc1 ?
Given back: 5.1 h

---

Test: Pharmacokinetic analyses in mouse
Type: in vivo
Settings: mouse, plasma, iv, 5 mg/kg, mouse, 5 mg/kg i.v., NCA, individual animals; read-out: AUC
Assignment: determine reported AUC for the given compounds.
The answer is to be given in µM·h; state only the numeric part.

Asked: Name the recorded AUC for Cc1ncsc1-c1ccc([C@H](CCCCCN2CCC(c3ccc4c(c3)n(C3CCCC3)c3nc(=O)c5c(Br)cccc5n43)CC2)NC(=O)[C@@H]2C[C@@H](O)CN2C(=O)[C@@H](NC(=O)C2(F)CC2)C(C)(C)C)cc1 .
Given back: 30.4

Asked: AUC for Cc1ncsc1-c1ccc(C(CCC(C)CCN2CCC(c3ccc4c(c3)n(C3CCCC3)c3nc(=O)c5c(Br)cccc5n43)CC2)NC(=O)C2CC(O)CN2C(=O)C(NC(=O)C2(F)CC2)C(C)(C)C)cc1 (centres unmarked) ?
Given back: 34.2

---

Test: Microsomal stability
Type: in vitro ADME
Conditions: mouse liver microsomes
Would you mind telling me the reported Mic. Stab. Mouse of each entry?

Asked: Which Mic. Stab. Mouse value belongs to O=c1nc2n(C3CCCC3)c3cc(C4CCNCC4)ccc3n2c2cccc(Br)c12 ?
Given back: <24 % QH

Asked: Request the reported Mic. Stab. Mouse associated with Cc1ncsc1-c1ccc([C@H](CC[C@H](C)CCN2CCC(c3ccc4c(c3)n(C3CCCC3)c3nc(=O)c5c(Br)cccc5n43)CC2)NC(=O)[C@@H]2C[C@H](O)CN2C(=O)[C@@H](NC(=O)C2(F)CC2)C(C)(C)C)cc1
Given back: <24 % QH

Asked: GET /values?readout=Mic. Stab. Mouse&item= Cc1ncsc1-c1ccc(CNC(=O)[C@@H]2C[C@@H](O)CN2C(=O)[C@@H](NC(=O)C2(F)CC2)C(C)(C)C)c(OCCOCCOCCN2CCC(c3ccc4c(c3)n(C3CCCC3)c3nc(=O)c5c(Br)cccc5n43)CC2)c1
Given back: 56 ± 10 % QH

Asked: Which Mic. Stab. Mouse value belongs to CN1CCC(c2ccc3c(c2)n(C2CCCC2)c2nc(=O)c4c(Br)cccc4n32)CC1 ?
Given back: 43 ± 10 % QH

Asked: Field request: Mic. Stab. Mouse | item: Cc1ncsc1-c1ccc(C(CCC(C)CCN2CCC(c3ccc4c(c3)n(C3CCCC3)c3nc(=O)c5c(Br)cccc5n43)CC2)NC(=O)C2CC(O)CN2C(=O)C(NC(=O)C2(F)CC2)C(C)(C)C)cc1 (centres unmarked)
Given back: <24 % QH

Asked: Need Mic. Stab. Mouse, item Cc1ncsc1-c1ccc([C@H](COC(C)CN2CCC(c3ccc4c(c3)n(C3CCCC3)c3nc(=O)c5c(Br)cccc5n43)CC2)NC(=O)[C@@H]2C[C@@H](O)CN2C(=O)[C@@H](NC(=O)C2(N(C)C)CC2)C(C)(C)C)cc1 (some centres unmarked)
Given back: 68 ± 2 % QH

Asked: Consider the compound shown here: Cc1ncsc1-c1ccc([C@H](CC[C@@H](C)CCN2CCC(c3ccc4c(c3)n(C3CCCC3)c3nc(=O)c5c(Br)cccc5n43)CC2)NC(=O)[C@@H]2C[C@@H](O)CN2C(=O)[C@@H](NC(=O)C2(F)CC2)C(C)(C)C)cc1 What is its recorded Mic. Stab. Mouse?
Given back: <24 % QH

Asked: Look up Mic. Stab. Mouse for this compound: Cc1ncsc1-c1ccc([C@H](CCC(C)(C)CCN2CCC(c3ccc4c(c3)n(C3CCCC3)c3nc(=O)c5c(Br)cccc5n43)CC2)NC(=O)[C@@H]2C[C@@H](O)CN2C(=O)[C@@H](NC(=O)C2(F)CC2)C(C)(C)C)cc1
Given back: <24 % QH

---

Test: Plasma protein binding
Type: in vitro ADME
Conditions: human, plasma, human; fraction unbound; read-out: PPB fu Human
quantity kind: fraction unbound at 5 h, 3 µmol/L

Asked: What value of fraction unbound at 5 h, 3 µmol/L has been recorded for this entry: Cc1ncsc1-c1ccc([C@H](CCCCCN2CCC(c3ccc4c(c3)n(C3CCCC3)c3nc(=O)c5c(Br)cccc5n43)CC2)NC(=O)[C@@H]2C[C@@H](O)CN2C(=O)[C@@H](NC(=O)C2(F)CC2)C(C)(C)C)cc1
Given back: < 0.0004

Asked: Consider the compound Cc1ncsc1-c1ccc(C(CCC(C)CCN2CCC(c3ccc4c(c3)n(C3CCCC3)c3nc(=O)c5c(Br)cccc5n43)CC2)NC(=O)C2CC(O)CN2C(=O)C(NC(=O)C2(F)CC2)C(C)(C)C)cc1 (centres unmarked) and give its measured fraction unbound at 5 h, 3 µmol/L.
Given back: < 0.0005

---

Experiment: Bidirectional permeability measurement in Caco-2 cells
Assay type: in vitro ADME
Conditions: human, Caco-2, pH 7.4, Modified Caco-2, b to a; read-out: Modified Caco-2 Pba
quantity kind: Papp B→A at 1 µM (×10⁻⁶ cm/s)
Kindly provide the numeric value in ×10⁻⁶ cm/s only, without the unit symbol.

Asked: Which value of Papp B→A at 1 µM has been reported for Cc1ncsc1-c1ccc([C@H](COC(C)CN2CCC(c3ccc4c(c3)n(C3CCCC3)c3nc(=O)c5c(Br)cccc5n43)CC2)NC(=O)[C@@H]2C[C@@H](O)CN2C(=O)[C@@H](NC(=O)C2(F)CC2)C(C)(C)C)cc1 (some centres unmarked) in the records?
Given back: 170

Asked: Looking for the measured Papp B→A at 1 µM of Cc1ncsc1-c1ccc([C@H](COC(C)CN2CCC(c3ccc4c(c3)n(C3CCCC3)c3nc(=O)c5c(Br)cccc5n43)CC2)NC(=O)[C@@H]2C[C@@H](O)CN2C(=O)[C@@H](NC(=O)C2(N(C)C)CC2)C(C)(C)C)cc1 (some centres unmarked) , can you help?
Given back: 69

---

Give measured PPB fu 10% Calf for each item. Keep answers brief.
Assay: Plasma protein binding
Type: in vitro ADME
Conditions: 10% calf

Asked: Entry Cc1ncsc1-c1ccc([C@H](CCCCN2CCC(c3ccc4c(c3)n(C3CCCC3)c3nc(=O)c5c(Br)cccc5n43)CC2)NC(=O)[C@@H]2C[C@@H](O)CN2C(=O)[C@@H](NC(=O)C2(F)CC2)C(C)(C)C)cc1 has what PPB fu 10% Calf?
Given back: 0.731%

Asked: Would you mind telling me what PPB fu 10% Calf value was observed for Cc1ncsc1-c1ccc([C@H](CCC(C)(C)CCN2CCC(c3ccc4c(c3)n(C3CCCC3)c3nc(=O)c5c(Br)cccc5n43)CC2)NC(=O)[C@@H]2C[C@@H](O)CN2C(=O)[C@@H](NC(=O)C2(F)CC2)C(C)(C)C)cc1 ?
Given back: <0.071%

Asked: Return reported PPB fu 10% Calf; argument: Cc1ncsc1-c1ccc([C@H](COC(C)CN2CCC(c3ccc4c(c3)n(C3CCCC3)c3nc(=O)c5c(Br)cccc5n43)CC2)NC(=O)[C@@H]2C[C@@H](O)CN2C(=O)[C@@H](NC(=O)C2(F)CC2)C(C)(C)C)cc1 (stereo partly drawn)
Given back: 8.695%
